# MBEC50 listing for each entry below
Tested on: preformed MDRPA (CCARM 2095) biofilms
Format: cell-based, multidrug-resistant Pseudomonas aeruginosa
Settings: 24 h treatment, 50% eradication
Method: While preventing biofilm formation on surfaces is crucial, treating established biofilm infections presents a significant challenge due to the extracellular polymeric substance (EPS) matrix hindering antibiotic penetration and the high cell density within mature biofilms. To address this challenge, we evaluated the ability of BP100 and its analogs to eradicate established MDRPA biofilms over a 24 h period. […]
Kindly answer with a numeric value in µM, unit omitted.

Exercise: Please give the measured MBEC50 for this compound: CC[C@H](C)[C@H](NC(=O)[C@H](CCCCN)NC(=O)[C@H](CCCCN)NC(=O)[C@H](Cc1ccccc1)NC(=O)[C@H](CC(C)C)NC(=O)[C@H](CCCCN)NC(=O)[C@@H](N)CCCCN)C(=O)N[C@@H](CC(C)C)C(=O)N[C@@H](CCCCN)C(=O)N[C@@H](Cc1c[nH]c2ccccc12)C(=O)N[C@@H](CC(C)C)C(N)=O
Key: 8

Exercise: Please give the measured MBEC50 for this compound: CC[C@H](C)[C@H](NC(=O)[C@H](CCCCN)NC(=O)[C@H](CCCCN)NC(=O)[C@H](Cc1c[nH]c2ccccc12)NC(=O)[C@H](CC(C)C)NC(=O)[C@H](CCCCN)NC(=O)[C@@H](N)CCCCN)C(=O)N[C@@H](CC(C)C)C(=O)N[C@@H](CCCCN)C(=O)N[C@@H](Cc1ccc(O)cc1)C(=O)N[C@@H](CC(C)C)C(N)=O
Key: 8

Exercise: Please give the measured MBEC50 for this compound: CC[C@H](C)[C@H](NC(=O)[C@H](CCCCN)NC(=O)[C@H](CCCCN)NC(=O)[C@H](Cc1ccccc1)NC(=O)[C@H](CC(C)C)NC(=O)[C@H](CCCCN)NC(=O)[C@@H](N)CCCCN)C(=O)N[C@@H](Cc1c[nH]c2ccccc12)C(=O)N[C@@H](CCCCN)C(=O)N[C@@H](Cc1ccc(O)cc1)C(=O)N[C@@H](CC(C)C)C(N)=O
Key: 16

====

Tested on: S. aureus (KCTC 1621)
Type: cell-based, Staphylococcus aureus
Conditions: 10% Human Serum
Where no end group is shown, it is not given here.
endpoint_name: MIC (µM)
Kindly answer with a numeric value in µM, unit omitted.

Recorded MIC, per entry:
KKWWKKILKYL-NH2 [BP5]; 4
KKLFKKIWKWL-NH2 [BP11]; 8
KKWFKKILKWL-NH2 [BP6]; 4
KKLWKKILKWL-NH2 [BP8]; 4

# context switch: different substance, same MIC
Exercise: Please give the measured MIC for this substance: KKWFKKWLKWL-NH2 [BP13]
Key: 8

====

System: MRSA (CCARM 3089)
Assay type: cell-based, methicillin-resistant Staphylococcus aureus
Settings: broth microdilution in MHB, 37 °C, 24 h, 100% inhibition of growth
endpoint_name: Minimal Inhibitory Concentration (MIC) (µM)
Kindly answer with a numeric value in µM, unit omitted.

CC(C)C[C@H](NC(=O)[C@H](Cc1ccc(O)cc1)NC(=O)[C@H](CCCCN)NC(=O)[C@H](CC(C)C)NC(=O)[C@H](Cc1c[nH]c2ccccc12)NC(=O)[C@H](CCCCN)NC(=O)[C@H](CCCCN)NC(=O)[C@H](Cc1ccccc1)NC(=O)[C@H](CC(C)C)NC(=O)[C@H](CCCCN)NC(=O)[C@@H](N)CCCCN)C(N)=O [BP2]; 16

Exercise: Please give the measured Minimal Inhibitory Concentration (MIC) for this compound: CC[C@H](C)[C@H](NC(=O)[C@H](CCCCN)NC(=O)[C@H](CCCCN)NC(=O)[C@H](Cc1ccccc1)NC(=O)[C@H](CC(C)C)NC(=O)[C@H](CCCCN)NC(=O)[C@@H](N)CCCCN)C(=O)N[C@@H](CC(C)C)C(=O)N[C@@H](CCCCN)C(=O)N[C@@H](Cc1c[nH]c2ccccc12)C(=O)N[C@@H](CC(C)C)C(N)=O [BP4]
Key: 64
